- ASSAYED_SYSTEM: human Fatty Acid Synthase (Homo sapiens, UniProt P49327)
- Construct: made in house
- Sequence (P49327 whole entry): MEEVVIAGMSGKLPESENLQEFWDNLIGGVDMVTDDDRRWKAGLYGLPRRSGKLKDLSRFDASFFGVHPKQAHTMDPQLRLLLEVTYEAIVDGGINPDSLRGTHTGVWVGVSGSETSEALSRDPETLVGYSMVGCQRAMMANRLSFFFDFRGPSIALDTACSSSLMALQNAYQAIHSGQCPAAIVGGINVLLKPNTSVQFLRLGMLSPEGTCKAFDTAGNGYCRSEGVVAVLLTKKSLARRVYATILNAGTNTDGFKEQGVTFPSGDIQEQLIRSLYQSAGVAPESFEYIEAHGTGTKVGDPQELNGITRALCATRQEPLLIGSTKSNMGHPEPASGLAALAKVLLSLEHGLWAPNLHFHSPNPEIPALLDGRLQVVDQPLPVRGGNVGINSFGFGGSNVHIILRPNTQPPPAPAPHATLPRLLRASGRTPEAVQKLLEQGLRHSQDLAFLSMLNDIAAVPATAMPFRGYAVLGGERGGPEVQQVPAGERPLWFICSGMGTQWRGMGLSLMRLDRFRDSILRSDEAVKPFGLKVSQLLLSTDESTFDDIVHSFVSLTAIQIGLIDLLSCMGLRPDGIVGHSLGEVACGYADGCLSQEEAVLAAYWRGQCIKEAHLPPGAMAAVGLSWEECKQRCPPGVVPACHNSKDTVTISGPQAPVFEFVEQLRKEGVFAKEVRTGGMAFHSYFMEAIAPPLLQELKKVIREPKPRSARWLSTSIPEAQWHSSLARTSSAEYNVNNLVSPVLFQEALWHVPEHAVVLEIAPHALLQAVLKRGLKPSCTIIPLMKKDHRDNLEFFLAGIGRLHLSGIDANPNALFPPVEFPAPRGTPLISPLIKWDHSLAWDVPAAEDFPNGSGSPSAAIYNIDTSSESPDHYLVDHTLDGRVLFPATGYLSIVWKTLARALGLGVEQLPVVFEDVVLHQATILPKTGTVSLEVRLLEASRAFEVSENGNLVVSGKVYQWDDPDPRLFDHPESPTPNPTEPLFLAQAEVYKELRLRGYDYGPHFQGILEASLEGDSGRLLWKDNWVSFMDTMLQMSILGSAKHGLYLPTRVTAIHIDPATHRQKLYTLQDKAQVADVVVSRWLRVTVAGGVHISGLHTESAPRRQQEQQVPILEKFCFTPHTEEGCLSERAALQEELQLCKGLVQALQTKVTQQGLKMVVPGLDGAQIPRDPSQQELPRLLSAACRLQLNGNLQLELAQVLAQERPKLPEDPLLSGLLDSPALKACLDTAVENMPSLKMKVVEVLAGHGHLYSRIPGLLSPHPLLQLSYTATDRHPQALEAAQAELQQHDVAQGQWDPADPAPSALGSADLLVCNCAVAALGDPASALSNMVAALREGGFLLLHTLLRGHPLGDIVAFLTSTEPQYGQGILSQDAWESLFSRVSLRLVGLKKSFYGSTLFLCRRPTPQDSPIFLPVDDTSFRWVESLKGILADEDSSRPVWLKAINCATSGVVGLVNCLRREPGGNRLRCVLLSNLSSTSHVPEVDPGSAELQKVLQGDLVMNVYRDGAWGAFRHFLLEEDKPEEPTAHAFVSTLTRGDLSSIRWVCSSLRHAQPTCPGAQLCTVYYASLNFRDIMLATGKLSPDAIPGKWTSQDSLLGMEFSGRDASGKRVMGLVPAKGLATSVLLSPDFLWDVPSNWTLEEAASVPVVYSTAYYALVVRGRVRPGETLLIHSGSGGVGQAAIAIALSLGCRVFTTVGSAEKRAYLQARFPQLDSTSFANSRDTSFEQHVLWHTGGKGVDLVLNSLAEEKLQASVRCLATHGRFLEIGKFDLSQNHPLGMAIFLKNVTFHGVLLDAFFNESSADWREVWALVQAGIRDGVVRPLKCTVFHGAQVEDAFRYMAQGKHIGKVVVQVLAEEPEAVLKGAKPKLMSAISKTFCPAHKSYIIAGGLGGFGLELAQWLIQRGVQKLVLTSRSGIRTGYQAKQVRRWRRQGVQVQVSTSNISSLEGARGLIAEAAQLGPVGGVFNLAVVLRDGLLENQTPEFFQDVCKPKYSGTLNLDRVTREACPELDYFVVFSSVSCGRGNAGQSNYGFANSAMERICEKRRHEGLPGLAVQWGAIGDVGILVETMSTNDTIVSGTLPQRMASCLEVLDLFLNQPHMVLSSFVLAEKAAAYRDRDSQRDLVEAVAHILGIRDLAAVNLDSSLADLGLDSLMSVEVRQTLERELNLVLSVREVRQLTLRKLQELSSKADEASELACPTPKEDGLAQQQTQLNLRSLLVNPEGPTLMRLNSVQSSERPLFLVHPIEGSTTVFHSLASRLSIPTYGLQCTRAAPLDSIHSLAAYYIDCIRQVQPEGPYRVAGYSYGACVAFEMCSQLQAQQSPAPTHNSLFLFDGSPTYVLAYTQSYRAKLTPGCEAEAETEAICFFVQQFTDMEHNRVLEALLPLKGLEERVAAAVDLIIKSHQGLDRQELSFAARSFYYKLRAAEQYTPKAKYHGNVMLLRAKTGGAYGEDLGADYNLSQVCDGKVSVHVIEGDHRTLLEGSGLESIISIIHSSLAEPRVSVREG
- TEST: Human FAS enzyme assay (decrease in NADPH fluorescence)
- Assay type: biochemical
- PARTICULARS: % inhibition at a concentration of 100 μmolar
# if value of inhibition at 100 µM reaches 90%, tag yes; if it stays below, tag no

{"columns": ["MOLECULE", "CATEGORY_LABEL"],
 "data": [
  ["Cc1ccc(C(=O)N2CCC(c3ccc(C#N)cc3)CC2)cc1NC(=O)NC1CN2CCC1CC2 (centres unmarked) [Example 143]", "no"],
  ["Cc1ccc(C(=O)N2CCC(c3ccc(C#N)cc3)CC2)cc1NC(=O)NCCO [Example 90]", "yes"],
  ["Cc1ccc(C(=O)N2CCC(c3ccc(C#N)cc3)CC2)cc1NC(=O)NC(C)(C)CNc1ccccc1 [Example 59]", "no"],
  ["Cc1ccc(C(=O)N2CCC(c3ccc(C#N)cc3)CC2)cc1NC(=O)NCCNS(=O)(=O)N(C)C [Example 92]", "yes"],
  ["Cc1ccc(C(=O)N2CCC(c3ccccc3)CC2)cc1NC(=O)NC(C)C [Example 391]", "no"],
  ["Cc1ccc(C(=O)N2CCC(c3ccc(C#N)cc3)CC2)cc1NC(=O)NCCc1c[nH]cn1 [Example 139]", "no"]
]}

Each recorded value in this set is attributed to patent US20090118332A1.
